Exercise: state measured composite z-score for each of the molecules provided.
# System: Sam68 (KHDRBS1)
# Experiment Summary: Sam68 small-molecule binders, primary screen, biochemical, small-molecule microarray, 635 nm fluorescence (AID 1125);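 further: score merges 667 nm channel intensity with signal to noise over triplicate slides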
# Details: small-molecule microarray binding, higher = more signal

Prompt: Complete the entry with composite z-score for `Cc1c(NC(=O)/C(C#N)=C/C=C/c2ccccc2[N+](=O)[O-])c(=O)n(-c2ccccc2)n1C`
Completion: 0.708

Prompt: Complete the entry with composite z-score for `C=CC[C@@]1(C(=O)N2CCCCC2)N=C(c2ccc(OCCCO)cc2)O[C@@H]1c1ccccc1`
Completion: 1.29

Prompt: Complete the entry with composite z-score for `C[C@]1(C(=O)NC2CC2)c2ccccc2C(=O)N(Cc2ccc(OC(F)(F)F)cc2)[C@H]1c1ccc(CO)cc1`
Completion: 0.0003

Prompt: Complete the entry with composite z-score for `CCCNC(=O)[C@@]1(c2ccc([N+](=O)[O-])cc2)CC(=O)N(C2CCCCC2)[C@@H]1c1ccc(CO)cc1I`
Completion: 1.25

Prompt: Complete the entry with composite z-score for `COC(=O)[C@@]1(Cc2ccc(OC)cc2)[C@H]2c3cc(C(=O)N(C)C)n(Cc4nc5ccccc5[nH]4)c3C[C@H]2CN1C(=O)c1ccccc1`
Completion: 1.32

Prompt: Complete the entry with composite z-score for `C[C@@H]1ON(c2ccc(C(=O)OC(C)(C)C)cc2)[C@H](c2ccc(Br)cc2)[C@H]1C(=O)N1C(=O)OC[C@H]1Cc1ccccc1`
Completion: 1.28

Prompt: Complete the entry with composite z-score for `[N-]=[N+]=Nc1ccccc1C[C@@]1(C(=O)O)N=C(c2ccc(OCCCO)cc2)O[C@@H]1c1ccccc1`
Completion: 1.03

Prompt: Complete the entry with composite z-score for `[N-]=[N+]=Nc1ccccc1[C@H]1OC(c2ccc(OCCCO)cc2)=N[C@@]1(CCS(=O)(=O)c1ccccc1)C(=O)N1CCCCC1`
Completion: 1.3

Prompt: Complete the entry with composite z-score for `Cc1ccc(S[C@]2(C(=O)NCC(F)(F)F)CC(=O)N(Cc3ccccc3)[C@@H]2c2ccc(CO)cc2)cc1`
Completion: 0.619

Prompt: Complete the entry with composite z-score for O=C1NC(=O)C2C1C=CC(C(O)c1cc(C(F)(F)F)cc(C(F)(F)F)c1)N2Nc1ccc(Cl)cc1Cl (stereo not given)
Completion: -0.163
